Activity values for the compounds below.
biological target: Serine/threonine-protein kinase pim-1 (Homo sapiens) (UniProt P11309); assay: Inhibition of human PIM1 assessed as residual activity at 10 uM by ADP-Glo assay relative to control
Sequence (P11309 whole entry, looked up): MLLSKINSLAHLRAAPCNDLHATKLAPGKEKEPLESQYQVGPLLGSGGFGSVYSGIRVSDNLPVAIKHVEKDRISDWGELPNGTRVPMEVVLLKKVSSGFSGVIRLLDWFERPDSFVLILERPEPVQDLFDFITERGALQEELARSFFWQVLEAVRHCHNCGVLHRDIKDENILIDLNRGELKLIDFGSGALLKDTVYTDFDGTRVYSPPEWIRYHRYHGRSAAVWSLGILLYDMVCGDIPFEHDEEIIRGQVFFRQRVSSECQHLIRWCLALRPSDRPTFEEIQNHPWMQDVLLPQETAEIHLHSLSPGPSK
Property: Activity (%)

>>> value_observed("Clc1cccc(Nc2ncc3cccc(OCc4cn(Cc5ccccc5)nn4)c3n2)c1")
84
>>> value_observed("O=[N+]([O-])c1ccc(Cn2cc(COc3cccc4cnc(Nc5cccc(Cl)c5)nc34)nn2)cc1")
77
>>> value_observed("Clc1cccc(Nc2ncc3cccc(OCc4cn(-c5cc(Cl)cc(Cl)c5)nn4)c3n2)c1")
78

* * *

target: Serine/threonine-protein kinase haspin (Homo sapiens); assay: Inhibition of human HASPIN assessed as residual activity at 10 uM by ADP-Glo assay relative to control
Property: Activity (%)

>>> value_observed("O=[N+]([O-])c1ccc(-n2cc(COc3cccc4cnc(Nc5cccc(Cl)c5)nc34)nn2)cc1")
100
>>> value_observed("O=[N+]([O-])c1ccc(Cn2cc(COc3cccc4cnc(Nc5cccc(Cl)c5)nc34)nn2)cc1")
76
>>> value_observed("COc1ccccc1-n1cc(COc2cccc3cnc(Nc4cccc(Cl)c4)nc23)nn1")
100
>>> value_observed("Cc1ccc(-n2cc(COc3cccc4cnc(Nc5cccc(Cl)c5)nc34)nn2)c([N+](=O)[O-])c1")
94
>>> value_observed("COc1cccc(-n2cc(COc3cccc4cnc(Nc5cccc(Cl)c5)nc34)nn2)c1")
100
